Origin of measurements: paper PMC12254070

# Tested on: P. aeruginosa ATCC 27853
# Format: cell-based, Pseudomonas aeruginosa
# condition-set: ATCC 27853, 24 h
Ends that are not written are not given here.
Here, each record is paired with measured log10 MIC P.a data.
measure-name: log10 MIC P.a (log10 of the value in µM)

sequence-content | subject-of-test | log10 MIC P.a
LKRLAKLLKKWIKA [OrP4M] | P. aeruginosa ATCC 27853 | 0.54
AGLARKWLKLPIGVLAR [OrP1] | P. aeruginosa ATCC 27853 | 1.70
IKPVVKGIKGVKNFFK [VeP2] | P. aeruginosa ATCC 27853 | 1.71
AGLKKLAKKLGKVVL [OrP3] | P. aeruginosa ATCC 27853 | 1.14
FKKLLKFLKWLF [VeP1] | P. aeruginosa ATCC 27853 | 1.75
AIVKKIGKIWKNFIK [VeP2M] | P. aeruginosa ATCC 27853 | 0.89
LAKRWLKLLGKLAK [OrP1M] | P. aeruginosa ATCC 27853 | 0.59
FKLFCVAKRLPKKVL [OrP9] | P. aeruginosa ATCC 27853 | 1.17
AKLLGKLLRKKIGVL [OrP4] | P. aeruginosa ATCC 27853 | 1.20

----------
Here, each record is paired with measured IC50 data.
# Test system: C. albicans ATCC 10231
# Format: cell-based, Candida albicans
# condition-set: ATCC 10231, 24 h
Ends that are not written are not given here.

sequence-content | subject-of-test | IC50 (µM)
AIVKKIGKIWKNFIK [VeP2M] | C. albicans ATCC 10231 | 5.9
IGKVWKVAKKLIKI [OrP9M] | C. albicans ATCC 10231 | 4.9
LAKRWLKLLGKLAK [OrP1M] | C. albicans ATCC 10231 | 10.1
LKRLAKLLKKWIKA [OrP4M] | C. albicans ATCC 10231 | 9.4
AGLARKWLKLPIGVLAR [OrP1] | C. albicans ATCC 10231 | 14.8
IKPVVKGIKGVKNFFK [VeP2] | C. albicans ATCC 10231 | 23.7
AKLLGKLLRKKIGVL [OrP4] | C. albicans ATCC 10231 | 23.3
AGLKKLAKKLGKVVL [OrP3] | C. albicans ATCC 10231 | 9.6
FKKLLKFLKWLF [VeP1] | C. albicans ATCC 10231 | 31.7
FKLFCVAKRLPKKVL [OrP9] | C. albicans ATCC 10231 | 44.1

----------
# Test system: C. albicans ATCC 10231
# Type: cell-based, Candida albicans
# condition-set: ATCC 10231, 24 h
Ends that are not written are not given here.
Here, each record is paired with measured MFC C.a data.
measure-name: MFC C.a (µM)

sequence-content | units | readout-qualifier | reported-result
AGLARKWLKLPIGVLAR [OrP1] | µM | = | 49.7
AGLKKLAKKLGKVVL [OrP3] | µM | = | 27.8
AKLLGKLLRKKIGVL [OrP4] | µM | = | 125.3
AIVKKIGKIWKNFIK [VeP2M] | µM | = | 31.3
LKRLAKLLKKWIKA [OrP4M] | µM | = | 28.2
FKKLLKFLKWLF [VeP1] | µM | > | 113.1
LAKRWLKLLGKLAK [OrP1M] | µM | = | 31.6
IKPVVKGIKGVKNFFK [VeP2] | µM | > | 102.9
